Tested target: RAC-alpha serine/threonine-protein kinase (Homo sapiens) (UniProt P31749)
Sequence (P31749 whole entry, the tested form may be a part): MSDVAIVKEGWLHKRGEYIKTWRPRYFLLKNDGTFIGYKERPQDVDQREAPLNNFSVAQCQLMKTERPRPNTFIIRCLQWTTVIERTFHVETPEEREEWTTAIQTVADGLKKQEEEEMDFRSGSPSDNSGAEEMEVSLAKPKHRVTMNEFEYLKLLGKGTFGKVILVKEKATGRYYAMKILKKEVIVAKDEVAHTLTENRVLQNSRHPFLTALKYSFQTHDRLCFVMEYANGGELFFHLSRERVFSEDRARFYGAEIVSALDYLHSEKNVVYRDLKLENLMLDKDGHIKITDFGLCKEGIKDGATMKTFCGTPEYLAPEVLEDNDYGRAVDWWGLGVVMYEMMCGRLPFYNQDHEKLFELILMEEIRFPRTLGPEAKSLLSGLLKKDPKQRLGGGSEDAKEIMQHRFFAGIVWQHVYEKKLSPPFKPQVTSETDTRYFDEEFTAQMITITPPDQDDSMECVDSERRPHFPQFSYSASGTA
Protocol details: Inhibition of AKT1 in human PC3 cells using GSK-3beta fusion protein as substrate at 10 nM after 1 hr by Western blotting analysis relative to control
Type: cell-based
Recorded conditions: PC-3
Entries are grouped by inhibition into these classes: low = under 40%, moderate = from 40% up to 60%, high = 60% and over

{"Record smiles": "COc1ccc(OC[C@@H](N)CC(C)C)c2cc(-c3nc(C)no3)n(C)c12", "Group label": "moderate"}
{"Record smiles": "COC(=O)c1cc2c(OC[C@H](N)Cc3c[nH]c4ccccc34)ccc(Br)c2n1C", "Group label": "low"}
{"Record smiles": "COC(=O)c1cc2c(OC[C@@H](N)Cc3c[nH]c4ccccc34)ccc(Cl)c2n1C", "Group label": "high"}
{"Record smiles": "COC(=O)c1cc2c(OC[C@@H](N)Cc3ccccc3)ccc(OC)c2n1C", "Group label": "high"}
{"Record smiles": "COC(=O)c1cc2c(OC[C@H](N)Cc3ccccc3)ccc(Br)c2n1C", "Group label": "moderate"}
{"Record smiles": "COC(=O)c1cc2c(OC[C@@H](N)Cc3ccccc3)ccc(Br)c2n1C", "Group label": "moderate"}
{"Record smiles": "COC(=O)c1cc2c(OC[C@@H](N)CCSC)ccc(OC)c2n1C", "Group label": "low"}
{"Record smiles": "COC(=O)c1cc2c(OC[C@@H](N)CC(C)C)ccc(OC)c2n1C", "Group label": "low"}
{"Record smiles": "COc1ccc(OC[C@H](N)Cc2c[nH]c3ccccc23)c2cc(-c3ncno3)n(C)c12", "Group label": "moderate"}
{"Record smiles": "COC(=O)c1cc2c(OCCN)cccc2[nH]1", "Group label": "moderate"}
{"Record smiles": "COc1ccc(OC[C@H](N)Cc2ccccc2)c2cc(-c3nc(C)no3)n(C)c12", "Group label": "high"}
{"Record smiles": "COc1ccc(OC[C@@H](N)CCSC)c2cc(-c3nc(C)no3)n(C)c12", "Group label": "moderate"}
{"Record smiles": "COc1ccc(OC[C@@H](N)Cc2ccccc2)c2cc(-c3nc(C)no3)n(C)c12", "Group label": "moderate"}
{"Record smiles": "COC(=O)c1cc2c(OC[C@@H](N)Cc3ccccc3)ccc(Cl)c2n1C", "Group label": "low"}
{"Record smiles": "COC(=O)c1cc2c(OC[C@@H](N)Cc3c[nH]c4ccccc34)ccc(Br)c2n1C", "Group label": "high"}
{"Record smiles": "COc1ccc(OC[C@@H](N)Cc2c[nH]c3ccccc23)c2cc(-c3ncno3)n(C)c12", "Group label": "moderate"}
{"Record smiles": "CC[C@H](C)[C@H](N)COc1ccc(OC)c2c1cc(C(=O)OC)n2C", "Group label": "moderate"}
